Source listed as ChEMBL document CHEMBL3862010.

tested_target: UniProt:Q9JL21
Sequence (Q9JL21 whole entry): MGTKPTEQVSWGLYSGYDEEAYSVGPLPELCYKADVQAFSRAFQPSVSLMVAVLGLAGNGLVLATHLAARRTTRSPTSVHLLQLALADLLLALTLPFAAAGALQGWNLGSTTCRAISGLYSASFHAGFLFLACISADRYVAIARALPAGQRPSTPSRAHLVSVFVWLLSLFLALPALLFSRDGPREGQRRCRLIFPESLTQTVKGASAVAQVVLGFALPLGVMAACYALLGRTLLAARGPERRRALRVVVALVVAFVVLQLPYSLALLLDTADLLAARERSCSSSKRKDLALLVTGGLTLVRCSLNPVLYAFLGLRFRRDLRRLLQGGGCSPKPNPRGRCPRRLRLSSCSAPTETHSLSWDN
measurement_description: Antagonist activity at mouse CCR10 expressed in CHOK1 cells coexpressing aequorin/Galphaq assessed as inhibition of CCL27-dependent calcium flux in presence of coelenterazine H by chemiluminescence assay
# IC50 per record follows
Give just the number in µM; leave the unit off.

CC1CCN(C(=O)C(CCn2cccc2C#N)NS(=O)(=O)c2ccc3cc[nH]c3c2)CC1 (centres undefined) ... 1

Problem: Fill in the blank: the reported IC50 of CC1CCN(C(=O)C(CCn2cccc2C#N)NS(=O)(=O)c2cccc3c2ccn3C)CC1 (centres undefined) is ____.
Solution: 6.31

Problem: Now the compound CC1CCN(C(=O)C(CCn2nccc2C#N)NS(=O)(=O)c2cc(Cl)c(N)c(Cl)c2)CC1 (centres undefined)
Solution: 3.16

----------
tested_target: C-C chemokine receptor type 10 (Homo sapiens)
measurement_description: Antagonist activity at human CCR10 expressed in CHOK1 cells coexpressing aequorin/Galphaq assessed as inhibition of human CCL27-dependent calcium flux in presence of coelenterazine H by chemiluminescence assay
Type: functional, cell-based, CHO-K1
test_conditions: read-out: pIC50 (converted)
assay_metric: log10(IC50) (log10 of the value in nM)
Log10 applied to IC50; unit prior to transform: nM.

CC1CCN(C(=O)C(CCn2cccc2C#N)NS(=O)(=O)c2ccc3[nH]ccc3c2)CC1 (centres undefined) ... 2.30
Cc1ccc(S(=O)(=O)NC(CCn2cccc2C#N)C(=O)N2CCC(C)CC2)c(C)c1N (centres undefined) ... 2.00
CC1CCN(C(=O)C(CCn2nccc2C#N)NS(=O)(=O)c2cc(Cl)c(N)c(Cl)c2)CC1 (centres undefined) ... 1.80
CC1CCN(C(=O)C(CCn2cccc2C#N)NS(=O)(=O)c2cccc3cc[nH]c23)CC1 (centres undefined) ... 2.40
N#Cc1cccn1CCC(NS(=O)(=O)c1cc(Cl)c(N)c(Cl)c1)C(=O)N1CCC(C(F)(F)F)CC1 (centres undefined) ... 2.60

Problem: Endpoint output: log10(IC50) of CC1CCN(C(=O)C(CCn2cccc2C#N)NS(=O)(=O)c2cccc3[nH]ccc23)CC1 (stereo in doubt; form 2) . Value?
Solution: 3.50

----------
# Lookup of reported IC50 keyed by entry
tested_target: C-C chemokine receptor type 10 (Homo sapiens, UniProt P46092)
Sequence (P46092 whole entry): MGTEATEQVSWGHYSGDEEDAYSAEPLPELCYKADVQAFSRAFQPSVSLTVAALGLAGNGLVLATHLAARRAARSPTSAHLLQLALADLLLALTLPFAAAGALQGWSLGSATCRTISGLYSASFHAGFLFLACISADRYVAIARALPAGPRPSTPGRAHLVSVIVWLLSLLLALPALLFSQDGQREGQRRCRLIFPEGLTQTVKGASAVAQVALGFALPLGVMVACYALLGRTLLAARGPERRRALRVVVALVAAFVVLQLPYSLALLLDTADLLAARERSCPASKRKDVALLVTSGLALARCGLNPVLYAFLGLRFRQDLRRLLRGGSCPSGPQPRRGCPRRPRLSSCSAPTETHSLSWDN
measurement_description: Antagonist activity at human CCR10 expressed in CHOK1 cells coexpressing aequorin/Galphaq assessed as inhibition of human CCL27-dependent calcium flux in presence of coelenterazine H by chemiluminescence assay
Format: functional, cell-based, CHO-K1
test_conditions: read-out: pIC50 (converted)

CC1CCN(C(=O)[C@H](CCc2ccccc2)NS(=O)(=O)c2cc(Cl)c(N)c(Cl)c2)CC1 ... > 10 µM
CC1CCN(C(=O)C(CCn2ccnn2)NS(=O)(=O)c2cc(Cl)c(N)c(Cl)c2)CC1 (stereo not drawn) ... > 20 µM

Problem: Reported IC50, compound N#Cc1cccn1CCC(NS(=O)(=O)c1cc(Cl)c(N)c(Cl)c1)C(=O)N1CCCC1 (stereo not drawn) : ____
Solution: > 10 µM
